Every entry's value here was drawn from patent US6077872A.

experiment: in vivo; conditions: dog, po, 200 mg/kg

>  <Molecule>
O=C(O)[C@H](O)[C@@H](O)CO [calcium L-threonate]

>  <half-life, h>
3.57

$$$$

###

assay: in vivo; conditions: dog, po, 200 mg/kg
Attribute Measured: concentration at 8 h (ng/mL)

>  <Compound>
O=C(O)[C@H](O)[C@@H](O)CO [calcium L-threonate]

>  <Number>
4660

$$$$

###

Reported values of half-life for individual entries
test: Pharmacokinetic test: enhancement of serum Ca level in rats after single oral (stomach) administration; details: rat, in vivo, po, 200 mg/kg
Attribute Measured: half-life (h)

>  <Molecule>
O=C(O)O [calcium carbonate]

>  <Number>
0.34

$$$$
>  <Molecule>
O=C(O)[C@H](O)[C@@H](O)CO [calcium L-threonate]

>  <Number>
4.45

$$$$
>  <Molecule>
O=C(O)[C@H](O)[C@@H](O)[C@H](O)[C@H](O)CO [calcium gluconate, reference compound]

>  <Number>
2.66

$$$$
